Tested on: NCI-H522
Assay: NCI tumour cell line growth inhibition, 48 h
The source made the active and inactive calls. No stated cut-off is given here; in the data, active = GI50 up to about 1.1 µM and inactive = higher.
quantity: GI50

Example results:
# molecule, GI50
rows = [
    ("Cc1ccc(Nc2nc(=O)c3c4ccccc4n(C(=O)OC(C)(C)C)c3s2)cc1", "22.5 µM (inactive)"),
    ("C#CCN(N=O)C(=O)NCCCCC(NC(C)=O)C(=O)NCc1ccccc1 (stereo not drawn)", "25.5 µM (inactive)"),
    ("Cc1sccc1C(=S)Nc1ccc(Cl)c(/C=N/OC(C)(C)C)c1", "12 µM (inactive)"),
]

Which GI50 reading was recorded for the molecule `CCc1nc(N)c2nc(-c3cccs3)oc2n1` ?
> 100 µM (inactive)

Now the same for `C#CCn1c(=O)c2ccccc2n(CC#C)c1=O`
> 10 µM (inactive)

Now the same for CCCCCCC(C)CCCCCCCCCCC(=O)O (stereo not drawn)
> 100 µM (inactive)

Now the same for `S=C(Nc1ccc2c(c1)oc1ccccc12)c1cccnc1`
22 µM (inactive)

Now the same for `CSc1cc(C(C)(C)C)ccc1C(O)c1ccc(C(C)(C)C)cc1SC`
10.2 µM (inactive)

Now the same for `C/C=C/COC(=O)CO[N+](=O)[O-]`
> 100 µM (inactive)

Now the same for COc1ccc(C(=O)C(c2ccc(OC)cc2)C2(O)C(=O)Nc3ccccc32)cc1 (stereo not drawn)
> 100 µM (inactive)

Now the same for CC1(C)C2CCC3=C(CCC4(C)C5C[C@](C)(C(=O)O)CC[C@]5(C)CC[C@]34C)[C@@]2(C)CC[C@@H]1O (stereo partly drawn)
20 µM (inactive)

Now the same for `Cn1c(=O)c(C(c2ccccc2)c2c(O)c3ccccc3n(C)c2=O)c(O)c2ccccc21`
> 100 µM (inactive)

Now the same for Cc1ccc(S(=O)(=O)OC(c2ccc(Cl)cc2Cl)C2OC(=O)c3ccccc32)cc1 (stereo not drawn)
57.9 µM (inactive)

Now the same for `O=C1NCN(c2ccccc2)C12CCN(CCCN1CCN(CCOC(c3ccccc3)c3ccccc3)CC1)CC2`
1.73 µM (inactive)

Now the same for `COc1c(-c2nc3ccc(N4CCN(C)CC4)cc3[nH]2)cc(OC)c2[nH]c(COC(C)=O)nc12`
48.9 µM (inactive)

Now the same for CC(=O)OCC(=O)[C@@]12OC(C)(C)O[C@@H]1C[C@H]1[C@@H]3CC(C=O)=C4C=C(OCCCl)CC[C@]4(C)[C@@]3(F)[C@@H](O)C[C@@]12C [FORMOCORTAL]
20.3 µM (inactive)

Now the same for `CC(=O)Nc1[nH]c(C#N)nc1C#N`
> 100 µM (inactive)

Now the same for `CCOC(=O)c1ccc(Nc2nc3ccc(C(F)(F)F)cc3nc2C(=O)OCC)cc1`
> 100 µM (inactive)

Now the same for O=C1OC(Cl)C(N=P(c2ccccc2)(c2ccccc2)c2ccccc2)=C1Cl (stereo not drawn)
> 100 µM (inactive)
